- Test system: SARS-CoV-2
- Procedure summary: microbe, parasite or virus in culture
- Setup conditions: Severe acute respiratory syndrome coronavirus 2, Vero C1008, 48 h, read-out: pIC50 (converted)

{"Molecule": "CC[C@@]1(O)C(=O)OCc2c1cc1n(c2=O)Cc2c-1nc1ccccc1c2CCNC(C)C [BELOTECAN]", "IC50": "> 20 µM"}
{"Molecule": "c1ccc(C(CC2=NCCN2)c2ccccn2)cc1 (stereo not drawn) [MIDAGLIZOLE]", "IC50": "> 20 µM"}
{"Molecule": "CCCn1cnc2c1c(=O)n(CCCCC(C)=O)c(=O)n2C [PROPENTOFYLLINE]", "IC50": "> 20 µM"}
{"Molecule": "Cc1cc(Nc2ncc(Cl)c(Nc3ccccc3S(=O)(=O)C(C)C)n2)c(OC(C)C)cc1C1CCNCC1 [CERITINIB]", "IC50": "> 20 µM"}
{"Molecule": "CCCn1c(=O)c2[nH]c(C3CCCC3)nc2n(CCC)c1=O", "IC50": "> 20 µM"}
{"Molecule": "CC(C)NCC(O)c1ccc2ccccc2c1 (stereo not drawn) [PRONETALOL]", "IC50": "> 20 µM"}
{"Molecule": "O=C1CN=C(c2ccccc2Cl)c2cc([N+](=O)[O-])ccc2N1 [CLONAZEPAM]", "IC50": "> 20 µM"}
{"Molecule": "CC(C)[C@H](N/C(=N\\S(=O)(=O)c1ccc(Cl)cc1)N1C[C@@H](c2ccccc2)C(c2ccc(Cl)cc2)=N1)C(N)=O", "IC50": "> 100 µM"}
{"Molecule": "Cc1cc(C(C#N)c2ccc(Cl)cc2)c(Cl)cc1NC(=O)c1cc(I)cc(I)c1O (stereo not drawn) [CLOSANTEL]", "IC50": "> 20 µM"}
{"Molecule": "O=C(O)C[C@H](O)C[C@H](O)/C=C/c1c(C2CC2)nc2ccccc2c1-c1ccc(F)cc1 [PITAVASTATIN]", "IC50": "> 50.1 µM"}
{"Molecule": "Cn1nnc2c(C(N)=O)ncn2c1=O [TEMOZOLOMIDE]", "IC50": "> 20 µM"}
{"Molecule": "OC[C@H]1O[C@H](O[C@H]2O[C@H](CO)[C@@H](O)[C@H](O)[C@H]2O)[C@H](O)[C@@H](O)[C@@H]1O [TREHALOSE]", "IC50": "> 20 µM"}
{"Molecule": "N=C(N)Nc1ccc(C(=O)Oc2ccc3cc(C(=N)N)ccc3c2)cc1 [NAFAMOSTAT]", "IC50": "> 20 µM"}
{"Molecule": "C=CCOC(Cn1ccnc1)c1ccc(Cl)cc1Cl (stereo not drawn) [ENILCONAZOLE]", "IC50": "> 20 µM"}
{"Molecule": "Cn1cncc1[C@@](N)(c1ccc(Cl)cc1)c1ccc2c(c1)c(-c1cccc(Cl)c1)cc(=O)n2C [TIPIFARNIB]", "IC50": "> 100 µM"}
{"Molecule": "CC(C)[N+](C)(CCC(C(N)=O)(c1ccccc1)c1ccccc1)C(C)C [ISOPROPAMIDE]", "IC50": "> 20 µM"}
{"Molecule": "CO[C@@H](C(=O)N1Cc2[nH]nc(NC(=O)c3ccc(N4CCN(C)CC4)cc3)c2C1)c1ccccc1 [DANUSERTIB]", "IC50": "> 20 µM"}
{"Molecule": "C=CCn1c(=O)n(C2OC(CO)C(O)C2O)c2nc(N)[nH]c(=O)c21 (stereo not drawn)", "IC50": "> 20 µM"}
